So I've got a bunch of compounds here, and I need their GI50 values.
Test system: K-562 leukemia
Assay Protocol: NCI tumour cell line growth inhibition, 48 h

Sample `CCSc1nc(N)c(C#N)c(-c2ccc(OC)c(OC)c2)c1C#N` — what was its GI50?
10.7 µM

Requested field: GI50. Item: `C=C(C)[C@@H]1CC[C@]2(COC(=O)c3ccccc3C(=O)O)CC[C@]3(C)[C@H](CC[C@@H]4[C@@]5(C)CC[C@H](OC(=O)c6ccccc6C(=O)O)C(C)(C)[C@@H]5CC[C@]43C)[C@@H]12`
31.7 µM

Need GI50, item `COc1ccc(C#CC2=C(Br)C(=O)OC2)cc1`
4.77 µM

Quick one: GI50 of COc1ccccc1N1CCN(CC(O)Cn2c(=O)c3c(OC)nc(C)cc3c(=O)n2-c2ccccc2)CC1 (centres undefined) ?
> 100 µM

====

Tested on: A549 NSCLC
Assay Protocol: NCI tumour cell line growth inhibition, 48 h; in the data active = GI50 below about 0.43 µM; inactive = the rest
Answer with one of the outcomes active, inactive

What did this assay record as the result for `Clc1ccc2c(NCCNc3nc(N4CCCCC4)nc4ccccc34)ccnc2c1` ?
inactive

Per the records of this test, what outcome belongs to `CS(=O)(=O)Nc1cccc(-c2ccc3ncnc(Nc4cncc(Cl)c4)c3c2)c1` ?
inactive

Hello, I am checking results. What call was entered for `O=C1c2ccccc2-c2c1c1ccc3ccccc3c1n2-c1ccccc1` ?
inactive

Test call, this compound: `Cc1ccc(Nn2c(SCC(=O)Nc3nc(-c4ccccc4)cs3)nc(C)c2C)cc1`
inactive

Each compound tested received a call. Report the one for `COC(=O)C[C@@H]1CC=CC(=O)/C1=C(O)/C=C/c1ccccc1` .
inactive

Which outcome did this test record for the compound `N#Cc1cc2c(=S)[nH]c(=S)[nH]c2nc1SCc1ccccc1` ?
inactive

Tell me the recorded outcome of this test for `COc1cc(NC(=O)c2cc3ccccc3cc2O)c(OC)cc1Cl` .
inactive

Given Nc1n[nH]c2cc(F)c([C@@H]3Nc4c(F)cc5[nH]ncc5c4[C@H]4C5CCC(C5)[C@@H]34)cc12 (stereo not given in full) , state the outcome it received in this test.
active

GET /call?item= `COc1ccc2c(ccc3oc([N+](=O)[O-])cc32)c1` returns the recorded outcome of this test.
active

Recorded test outcome, item `NCCNc1nc2ccc(F)cc2c2c(=O)c3cc(F)ccc3sc12`
inactive

Recorded call for `CC[C@H](C)C(=O)O[C@H]1C[C@@H](C)C=C2C=C[C@H](C)[C@H](CC[C@@H]3C[C@@H](O)CC(=O)O3)[C@H]21` ?
inactive

Assay result, entry `COc1ccc(/C=C\c2cc(OC)c(OC)c(OC)c2)cc1N/C=C\C(=O)c1c[nH]c2ccccc12` — outcome?
active

Called result for `CCSc1nc(N)c(C#N)c(-c2ccc(OC)c(OC)c2)c1C#N`
inactive

Any idea what this test logged for O=C(Oc1c(Cl)c(Cl)c(Cl)c(Cl)c1Cl)C1CCCN1C(=O)OCc1ccccc1 (stereo not given) ?
inactive

Hi, do you know how `CN1CCC(n2cnc(-c3ccc(F)cc3)c2-c2ccnc(Nc3ccccc3)n2)CC1` came out in this test?
inactive

What did this assay record as the result for NC1=C(/C(N)=N/O)C(c2ccccc2)c2ccc3ccccc3c2O1 (stereo not given) ?
inactive

In this assay, the call recorded for `Nc1ncc(-c2ccc3ncnc(N4CCc5cc(F)c(Cl)cc54)c3c2)cc1C(F)(F)F` was what?
inactive

For this compound, state the assay outcome: `C=CC(=O)N1CCC(CNc2ncnc(N)c2-c2ccc(Oc3ccccc3)cc2)CC1`
inactive

Which outcome did this test record for the compound COC(=O)C(Br)(C(=O)OC)C(Br)C(Br)C(Br)c1ccccc1 (stereo not given) ?
inactive

Could you check what this test reported for `CCN1Cc2c(/C=C/c3ccccc3)nc3ccc(OC)cc3c2N(c2cccc(Cl)c2)C1` ?
inactive

====

Tested on: HL-60(TB) leukemia
Assay Protocol: NCI tumour cell line growth inhibition, 48 h
Kindly state TGI for each of the entries shown.

Reported TGI, molecule O=c1c2cc(Br)ccc2n(C2OC(CO)C(O)C(O)C2O)c(=S)n1-c1ccccc1 (centres undefined) : ____
> 100 µM

Which value of TGI has been reported for CCN(CC)CCC(CNc1c(C)cnc2cc(Cl)ccc12)c1ccc(Cl)c(Cl)c1 (centres undefined) in the records?
5.12 µM

May I ask what TGI has been recorded for `Cc1ccc(S(=O)(=O)Nc2cc(=O)[nH]c3c2CCC3)cc1` ?
> 100 µM

Which TGI value is on record for `Nc1ncc(-c2ccc3ncnc(N4CCc5cc(F)c(Cl)cc54)c3c2)cc1C(F)(F)F` ?
> 100 µM

Could you tell me which TGI is on file for N#CC1=C(N)Oc2c(ccc3cccnc23)C1c1ccccc1 (centres undefined) ?
2.07 µM

Which value of TGI has been reported for `CCOC(=O)/C=C(/C(=O)OCC)n1cc(C)c(=O)[nH]c1=O` in the records?
3.91 µM

Tell me the measured TGI of `C=C(C)[C@@H]1CC[C@]2(COC(=O)c3ccccc3C(=O)O)CC[C@]3(C)[C@H](CC[C@@H]4[C@@]5(C)CC[C@H](OC(=O)c6ccccc6C(=O)O)C(C)(C)[C@@H]5CC[C@]43C)[C@@H]12` , please.
> 100 µM

Using the record for `CC1=C(C(=O)NCc2ccccc2)C(c2ccc(N(C)C)cc2)C(C(=O)NCc2ccccc2)=C(C)N1` , report its TGI.
> 100 µM

What value of measured TGI is listed for `CCOC(=O)/C(=C/c1ccccc1)N(CC)CC` ?
> 100 µM

====

System: DU-145 prostate
Assay Protocol: NCI tumour cell line growth inhibition, 48 h; in the data active means GI50 below about 0.43 µM; inactive means the rest
Hi! Could you answer with just one of these? active, inactive

Each compound tested received a call. Report the one for `NCCNc1nc2ccc(F)cc2c2c(=O)c3cc(F)ccc3sc12` .
inactive

Which outcome was entered for the compound `Cc1cc(O)cc(-c2nn(C)cc2-c2cc(N3CCOCC3)nc(-c3cccnc3)n2)c1` in this test?
inactive

Call for entry `COc1ccc(C#CC2=C(Br)C(=O)OC2)cc1` :
inactive

Assay outcome for `NC1=CC(=O)C(=O)c2ccccc21` : what was it?
inactive

Returns: the outcome recorded for COC(=O)C(Br)(C(=O)OC)C(Br)C(Br)C(Br)c1ccccc1 (configuration not stated) in this assay.
inactive

Look up the recorded call for `COC(=O)C[C@@H]1CC=CC(=O)/C1=C(O)/C=C/c1ccccc1` in this test.
inactive

Please let me know the test result on file for CCN(CC)CCC(CNc1c(C)cnc2cc(Cl)ccc12)c1ccc(Cl)c(Cl)c1 (configuration not stated) .
inactive

Tell me the recorded outcome of this test for `CN1CCC(n2cnc(-c3ccc(F)cc3)c2-c2ccnc(Nc3ccccc3)n2)CC1` .
inactive

Record lookup: outcome of this test for `CCN(CC)CCOc1ccccc1-n1c(C)ccc1-c1ccccc1` ?
inactive

Per the records of this test, what outcome belongs to `CCCCc1n(Cc2ccc3ccccc3n2)cc[n+]1Cc1ccc2ccccc2c1` ?
inactive

# fetch the recorded call for `CC(=O)OCCC/C(=C/c1cc2ccccc2c2ccccc12)[N+](=O)[O-]` here
inactive

Hello, I am checking results. What call was entered for `O=C1Nc2cc(-c3ccc(O)cc3)ccc2/C1=C/c1ccc[nH]1` ?
inactive

I'd appreciate the recorded outcome for `COc1ncc(-c2ccc3ncnc(Nc4cccc(Cl)c4)c3c2)cc1NS(C)(=O)=O` from this test.
inactive

Tell me the assay call for `C=C(C)[C@@H]1CC[C@]2(COC(=O)c3ccccc3C(=O)O)CC[C@]3(C)[C@H](CC[C@@H]4[C@@]5(C)CC[C@H](OC(=O)c6ccccc6C(=O)O)C(C)(C)[C@@H]5CC[C@]43C)[C@@H]12` please.
inactive

So what was the verdict on `COc1ccc(C(=O)c2cc(C)c(OC)c(C)c2)c(OC)c1OC(=O)C(Cl)Cl` in this test?
active

GET /call?item= `Fc1cccc(-c2nc(-c3c[nH]c4ncccc34)cs2)c1` returns the recorded outcome of this test.
inactive

Status in this test for `Cc1ccc(Nn2c(SCC(=O)Nc3nc(-c4ccccc4)cs3)nc(C)c2C)cc1` ?
inactive

====

Tested on: MCF7 breast
Assay Protocol: NCI tumour cell line growth inhibition, 48 h
Please go through the items and note down their GI50.

For `Nc1nc(N)c2cc(S(=O)(=O)c3ccccc3)ccc2n1` , what is its reported GI50?
2.86 µM

GET /values?readout=GI50&item= CC12OC(C(=O)C13CCC3)C1C(=O)c3c(O)ccc(O)c3C(=O)C12 (centres undefined)
1.49 µM

// returns reported GI50 for input `COc1cc2c3c(n(CCCN=[N+]=[N-])c(=O)c2cc1OC)-c1ccc(NC(C)=O)cc1C3=O`
> 50 µM

Looking for the measured GI50 of O=C(Oc1c(Cl)c(Cl)c(Cl)c(Cl)c1Cl)C1CCCN1C(=O)OCc1ccccc1 (centres undefined) , can you help?
3.16 µM
